Assay: The drug is tested on Clostridium sp. strain: fecal isolate for biotransformation. The drug concentrations were measured before and after a 12-h incubation by liquid-chromatography-coupled mass spectrometry (LC–MS)
Conditions: 2 µM
metric: Bacterial Biotransformation

Solved cases below.
Qu. Retrieve Bacterial Biotransformation measured for `CN1C(C(=O)Nc2ccccn2)=C(O)c2sccc2S1(=O)=O` and print it.
Ans. Compound NOT metabolized

Qu. Retrieve Bacterial Biotransformation measured for CC1OC(OC2C(O)CC(OC3C(O)CC(OC4CCC5(C)C(CCC6C5CCC5(C)C(C7=CC(=O)OC7)CCC65O)C4)OC3C)OC2C)CC(O)C1O (stereo not drawn) and print it.
Ans. Compound metabolized

Qu. Retrieve Bacterial Biotransformation measured for COc1cc2nc(N3CCN(C(=O)C4COc5ccccc5O4)CC3)nc(N)c2cc1OC.CS(=O)(=O)O (stereo not drawn) [DOXAZOSIN MESYLATE] and print it.
Ans. Compound metabolized

Qu. Retrieve Bacterial Biotransformation measured for O=c1[nH]c2ccccc2n1C1CCN(CCCC(c2ccc(F)cc2)c2ccc(F)cc2)CC1 [PIMOZIDE] and print it.
Ans. Compound NOT metabolized

Qu. Retrieve Bacterial Biotransformation measured for `O=C1CC2(CCCC2)CC(=O)N1CCCCN1CCN(c2ncccn2)CC1` and print it.
Ans. Compound NOT metabolized

More entries:
Qu. Retrieve Bacterial Biotransformation measured for CC(C)(C)NC[C@H](O)COc1nsnc1N1CCOCC1.O=C(O)/C=C\C(=O)O [TIMOLOL MALEATE] and print it.
Ans. Compound NOT metabolized

Qu. Retrieve Bacterial Biotransformation measured for `CN1CCN(CC/C=C2/c3ccccc3Sc3ccc(S(=O)(=O)N(C)C)cc32)CC1` and print it.
Ans. Compound metabolized

Qu. Retrieve Bacterial Biotransformation measured for `O=C(CCCN1CCC2(CC1)C(=O)NCN2c1ccccc1)c1ccc(F)cc1` and print it.
Ans. Compound NOT metabolized

====

Experiment: The drug is tested on Ruminococcus torques strain: ATCC27756 for biotransformation. The drug concentrations were measured before and after a 12-h incubation by liquid-chromatography-coupled mass spectrometry (LC–MS)
Type: ADME
Design: dose 2 uM, timepoint 0 vs 12 hours
Conditions: 2 µM
metric: Bacterial Biotransformation

Solved cases below.
Qu. Retrieve Bacterial Biotransformation measured for `COc1ccc(/C=C/C(=O)Nc2ccccc2C(=O)O)cc1OC` and print it.
Ans. Compound NOT metabolized

Qu. Retrieve Bacterial Biotransformation measured for CCCc1nn(C)c2c(=O)[nH]c(-c3cc(S(=O)(=O)N4CCN(C)CC4)ccc3OCC)nc12.O=C(O)CC(O)(CC(=O)O)C(=O)O [SILDENAFIL CITRATE] and print it.
Ans. Compound NOT metabolized

Qu. Retrieve Bacterial Biotransformation measured for O=C1[C@H](CC[C@H](O)c2ccc(F)cc2)[C@@H](c2ccc(O)cc2)N1c1ccc(F)cc1 [EZETIMIBE] and print it.
Ans. Compound NOT metabolized

Qu. Retrieve Bacterial Biotransformation measured for CC(C)NCC(O)COc1ccc(CCOCC2CC2)cc1 (stereo unspecified) [BETAXOLOL] and print it.
Ans. Compound NOT metabolized

Qu. Retrieve Bacterial Biotransformation measured for C[C@@H]1CC[C@H]2[C@@H](C)C(=O)O[C@@H]3O[C@@]4(C)CC[C@@H]1[C@]32OO4 [ARTEMISININ] and print it.
Ans. Compound metabolized

More entries:
Qu. Retrieve Bacterial Biotransformation measured for COC1=C(OC)C(=O)C(CCCCCCCCCCO)=C(C)C1=O [IDEBENONE] and print it.
Ans. Compound NOT metabolized

Qu. Retrieve Bacterial Biotransformation measured for CC(=O)O[C@]1(C(C)=O)CC[C@H]2[C@@H]3C=C(C)C4=CC(=O)CC[C@]4(C)[C@H]3CC[C@@]21C [MEGESTROL ACETATE] and print it.
Ans. Compound NOT metabolized

Qu. Retrieve Bacterial Biotransformation measured for COc1cc2nc(N3CCN(C(=O)C4COc5ccccc5O4)CC3)nc(N)c2cc1OC.CS(=O)(=O)O (stereo unspecified) [DOXAZOSIN MESYLATE] and print it.
Ans. Compound NOT metabolized

Qu. Retrieve Bacterial Biotransformation measured for Clc1cccc(Cl)c1N=C1NCCN1 [CLONIDINE] and print it.
Ans. Compound NOT metabolized

Qu. Retrieve Bacterial Biotransformation measured for COc1ccc2c(c1OC)C(=O)O[C@@H]2[C@H]1c2c(cc3c(c2OC)OCO3)CCN1C [NOSCAPINE] and print it.
Ans. Compound metabolized

Qu. Retrieve Bacterial Biotransformation measured for CN1CCC[C@@H]1CCO[C@](C)(c1ccccc1)c1ccc(Cl)cc1.O=C(O)/C=C/C(=O)O [CLEMASTINE FUMARATE] and print it.
Ans. Compound NOT metabolized

Qu. Retrieve Bacterial Biotransformation measured for CN1[C@@H]2CC[C@H]1C[C@@H](OC(=O)C(CO)c1ccccc1)C2 (stereo partly specified) [ATROPINE] and print it.
Ans. Compound NOT metabolized

Qu. Retrieve Bacterial Biotransformation measured for C[C@]12CCC(=O)C=C1[C@@H]1C[C@@H]1[C@H]1[C@@H]3[C@@H]4C[C@@H]4[C@@]4(CCC(=O)O4)[C@@]3(C)CC[C@@H]12 [DROSPIRENONE] and print it.
Ans. Compound NOT metabolized

Qu. Retrieve Bacterial Biotransformation measured for CC(C)(C)NCC(O)COc1cccc2c1CC(O)C(O)C2 (stereo unspecified) [NADOLOL] and print it.
Ans. Compound NOT metabolized

Qu. Retrieve Bacterial Biotransformation measured for CN(C)C(=O)C(CCN1CCC(O)(c2ccc(Cl)cc2)CC1)(c1ccccc1)c1ccccc1 [LOPERAMIDE] and print it.
Ans. Compound NOT metabolized

Qu. Retrieve Bacterial Biotransformation measured for OC(Cn1cncn1)(Cn1cncn1)c1ccc(F)cc1F [FLUCONAZOLE] and print it.
Ans. Compound metabolized
